# tgt: T1, natriuretic peptide receptor-B (human)
# T1 chain: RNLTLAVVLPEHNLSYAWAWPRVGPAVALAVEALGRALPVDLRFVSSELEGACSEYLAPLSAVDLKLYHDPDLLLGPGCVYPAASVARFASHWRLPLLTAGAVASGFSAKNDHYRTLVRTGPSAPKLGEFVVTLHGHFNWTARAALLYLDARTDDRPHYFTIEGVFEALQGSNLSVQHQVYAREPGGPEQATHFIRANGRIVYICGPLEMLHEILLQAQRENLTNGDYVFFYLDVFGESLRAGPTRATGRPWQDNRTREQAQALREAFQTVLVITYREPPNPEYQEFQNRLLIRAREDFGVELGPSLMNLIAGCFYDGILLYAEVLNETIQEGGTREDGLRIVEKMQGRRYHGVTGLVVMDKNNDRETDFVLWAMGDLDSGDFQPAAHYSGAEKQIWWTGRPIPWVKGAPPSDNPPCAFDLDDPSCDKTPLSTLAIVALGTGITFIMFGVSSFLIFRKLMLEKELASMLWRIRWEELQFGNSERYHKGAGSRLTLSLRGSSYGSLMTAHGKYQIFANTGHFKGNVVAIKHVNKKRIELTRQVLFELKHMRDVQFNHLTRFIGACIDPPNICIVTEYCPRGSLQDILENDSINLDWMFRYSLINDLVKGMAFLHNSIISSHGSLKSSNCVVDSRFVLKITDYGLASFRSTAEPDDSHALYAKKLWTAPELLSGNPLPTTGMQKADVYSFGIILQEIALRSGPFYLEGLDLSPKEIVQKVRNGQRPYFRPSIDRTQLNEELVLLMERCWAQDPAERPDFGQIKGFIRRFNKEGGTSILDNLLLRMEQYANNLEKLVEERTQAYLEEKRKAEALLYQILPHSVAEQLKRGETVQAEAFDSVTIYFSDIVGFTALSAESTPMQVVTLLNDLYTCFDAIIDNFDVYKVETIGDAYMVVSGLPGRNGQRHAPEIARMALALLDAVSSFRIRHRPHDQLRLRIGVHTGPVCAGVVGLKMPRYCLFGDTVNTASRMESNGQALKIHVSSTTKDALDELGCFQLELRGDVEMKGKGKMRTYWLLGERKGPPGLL
# assay method text: cell-based or functional assay
Numbered stars: 1 amine (or outer) side, 2 acyl side, 3 side chain; on linkers, the order of the positions; unused ones are H or OH. Square brackets hold non-standard residues; d marks the D form. Ends that are not written are not given here. * marks the point of attachment. Pro(trans-4-NH2) = O=C([C@@H]1C[C@@H](N[*:3])CN1[*:1])[*:2]; Sni = (S)-nipecotic acid, O=C([C@H]1CCCN([*:1])C1)[*:2]; Oic = O=C(O)[C@@H]1C[C@@H]2CCCC[C@@H]2N1; Phe(4-Cl) = N[C@@H](Cc1ccc(Cl)cc1)C(=O)O; Butanoyl(4-cHex) = O=C(CCCC1CCCCC1)*; Hyp = O=C(O)[C@@H]1C[C@@H](O)CN1; 2Thi = N[C@@H](Cc1cccs1)C(=O)O; NMeL = CN[C@@H](CC(C)C)C(=O)O; AR‑201‑69 = not defined here; Nle = CCCC[C@H](N)C(=O)O; Octanoyl = CCCCCCCC(=O)*; Che = not defined here; Occ = octanoic acid

binder	EC50 group, cGMP in GTM-3 cells
Octanoyl-[dA]F[dR]L[Hyp][NMeL]IRI-NH2 [JAL-1362]	≤ 15 µM
Octanoyl-[dA]F[dL]L[Hyp][Oic]DRI-NH2 [JAL-1386]	≤ 5 µM
[Occ][Sni]FGL[Pro(trans-4-NH2)][NMeL]DRI-NH2 [JAL-1320]	≤ 1 µM
Octanoyl-[dA]FXL[Pro(trans-4-NH2)][NMeL]DRI-NH2 (not fully specified (some residues); printed as Occ-ala-Phe-dap(6238)-Leu-Tap-Nml-Asp-Arg-Ile-NH2) [JAL-1461]	≤ 5 µM
[AR‑201‑69]F[dR]L[Hyp][NMeL]DRI-NH2 (reading uncertain; also: printed as (AR-201-69)-Phe-arg-Leu-Hyp-Nml-Asp-Arg-Ile-NH2) [JAL-1342]	≤ 5 µM
Octanoyl-[Sni]FXL[Hyp][NMeL]DRI-NH2 (not fully specified (some residues); printed as Occ-Sni-Phe-orn-Leu-Hyp-Nml-Asp-Arg-Ile-NH2) [JAL-1265]	≤ 1 µM
Octanoyl-[dA][Phe(4-Cl)][dL]L[Hyp]LDRI-NH2 [JAL-1050]	≤ 1 µM
[Occ][Sni]FLL[Hyp][NMeL][2Thi]R[Che] (not fully specified (residue 4); printed as Occ-Sni-Phe-leu-Leu-Hyp-Nml-Thi-Arg-Che; reading uncertain) [JAL-1758]	≤ 15 µM
Octanoyl-[dA]F[dR]L[Hyp][NMeL]D[Nle]I-NH2 [JAL-1361]	≤ 15 µM
{Butanoyl(4-cHex)}-[dA][dA]FGLKLDRI-NH2 [JAL-0693]	≤ 15 µM
